Target: RalA (Homo sapiens, UniProt P11233)
Construct: expressed in transfected cells; host or cells: HepG2 (from b6; the methods paragraph names no cell line)
Sequence (P11233 1-203 limits assumed): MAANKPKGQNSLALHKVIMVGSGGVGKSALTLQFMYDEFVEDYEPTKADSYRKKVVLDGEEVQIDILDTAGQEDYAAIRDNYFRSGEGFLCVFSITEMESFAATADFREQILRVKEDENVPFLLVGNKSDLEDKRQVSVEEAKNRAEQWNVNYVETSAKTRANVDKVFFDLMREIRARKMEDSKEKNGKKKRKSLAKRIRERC
Assay: ELISA-based RalA activity assay (RalBP1-coated plates, lysates of compound-treated cells)
Format: biochemical
Details: 1 μM compound; % control = activity remained
Kindly supply the reported remaining activity at 1 µM values for the records listed here.
Reply with just the number (in %).

Provide the reported remaining activity at 1 µM (system: RalA (Homo sapiens, UniProt P11233)) for Cc1ccc(S(=O)(=O)NC2=C(C#N)C(c3cccnc3)c3c(C)nn(-c4ccccc4)c3O2)cc1 (stereo not shown)
32

Send back RalA (Homo sapiens, UniProt P11233) remaining activity at 1 µM of COc1ccc(S(=O)(=O)NC2=C(C#N)C(c3cccc(OC)c3)c3c(C)nn(-c4ccccc4Cl)c3O2)cc1 (stereo not shown) only.
54

Please respond with reported remaining activity at 1 µM (system RalA (Homo sapiens, UniProt P11233)) for COc1cccc(C2C(C#N)=C(NS(=O)(=O)c3ccc([N+](=O)[O-])cc3)Oc3c2c(C)nn3-c2ccccc2Cl)c1 (stereo not shown) .
60

Given COc1ccc(S(=O)(=O)NC2=C(C#N)C(c3ccc(C(F)(F)F)cc3)c3c(C)nn(-c4ccccc4)c3O2)cc1 (stereo not shown) , report its remaining activity at 1 µM on RalA (Homo sapiens, UniProt P11233).
13

----------
observationType: melting point

Tell me melting point reported for Cc1ccc(S(=O)(=O)NC2=C(C#N)C(c3ccco3)c3c(C)nn(-c4ccccc4Cl)c3O2)cc1 (centres unmarked) [4s]
62.5 to 63.9 °C

Indicate the recorded melting point value for this molecule: Cc1ccc(S(=O)(=O)NC2=C(C#N)C(c3ccncc3)c3c(C)nn(-c4ccccc4Cl)c3O2)cc1 (centres unmarked) [4u]
79 to 80 °C

Answer with the recorded melting point of Cc1ccc(S(=O)(=O)NC2=C(C#N)C(c3ccsc3)c3c(C)nn(-c4ccccc4)c3O2)cc1 (centres unmarked) [4m] only.
67.8 to 68.4 °C

Answer with the recorded melting point of Cc1ccc(S(=O)(=O)NC2=C(C#N)C(c3ccc(C(F)(F)F)cc3)c3c(C)nn(-c4ccccc4)c3O2)cc1 (centres unmarked) [4n] only.
109.3 to 110.2 °C

Give me measured melting point, please, for this molecule: Cc1ccc(S(=O)(=O)NC2=C(C#N)C(c3ccc(Br)cc3F)c3c(C)nn(-c4ccccc4)c3O2)cc1 (centres unmarked) [4h]
73.6 to 77.4 °C

Check the records and state melting point for Cc1ccc(C2C(C#N)=C(NS(=O)(=O)c3ccc(C)cc3)Oc3c2c(C)nn3-c2ccccc2)cc1 (centres unmarked) [4b]
74.7 to 75 °C

Fill in reported melting point for this entry: COc1ccc(C2C(C#N)=C(NS(=O)(=O)c3ccc(C)cc3)Oc3c2c(C)nn3-c2ccccc2)cc1 (centres unmarked) [4i]
145.2 to 146 °C

Assign melting point to the following record: Cc1ccc(S(=O)(=O)NC2=C(C#N)C(c3cccc(Cl)c3)c3c(C)nn(-c4ccccc4)c3O2)cc1 (centres unmarked) [4c]
68.4 to 69 °C

----------
For each of the molecules below, state its IC50.
Target: RalB (Homo sapiens, UniProt P11234)
Construct: expressed in transfected cells; host or cells: HepG2 (from b6; the methods paragraph names no cell line)
Sequence (P11234 1-203 limits assumed): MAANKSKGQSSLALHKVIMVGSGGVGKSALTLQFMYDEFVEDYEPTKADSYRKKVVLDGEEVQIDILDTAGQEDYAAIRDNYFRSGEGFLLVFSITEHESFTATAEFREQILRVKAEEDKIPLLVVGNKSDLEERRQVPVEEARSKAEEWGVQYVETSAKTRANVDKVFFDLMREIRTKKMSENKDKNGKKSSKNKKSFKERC
Assay: ELISA-based RalB activity assay (RalBP1-coated plates, lysates of compound-treated cells)
Type: biochemical
Settings: enzymatic inhibition; average of at least three independent replicates ± SD; read-out: Kinase activities (IC50, μM) RalB
Reply with just the number (in µM).

For Cc1ccc(S(=O)(=O)NC2=C(C#N)C(c3ccsc3)c3c(C)nn(-c4ccccc4)c3O2)cc1 (centres unmarked) , write its IC50.
3.86

Name the recorded IC50 of the molecule listed here: Cc1ccc(S(=O)(=O)NC2=C(C#N)C(c3ccc(C(F)(F)F)cc3)c3c(C)nn(-c4ccccc4)c3O2)cc1 (centres unmarked)
4.11

Give reported IC50 value for Cc1nn(-c2ccccc2)c2c1C(c1ccc(C(F)(F)F)cc1)C(C#N)=C(NS(=O)(=O)c1ccc(F)cc1F)O2 (centres unmarked)
1.49

Return value of IC50 for input COc1ccc(S(=O)(=O)NC2=C(C#N)C(c3ccc(C(F)(F)F)cc3)c3c(C)nn(-c4ccccc4)c3O2)cc1 (centres unmarked) , no commentary.
0.41

State, in one line, measured IC50 of Cc1ccc(S(=O)(=O)NC2=C(C#N)C(c3ccncc3)c3c(C)nn(-c4ccccc4)c3O2)cc1 (centres unmarked)
2.64

Read the entry Cc1nn(-c2ccccc2)c2c1C(c1ccc(C(F)(F)F)cc1)C(C#N)=C(NS(=O)(=O)c1cccs1)O2 (centres unmarked) and write its reported IC50.
1.93

# return recorded IC50 for entry Cc1ccc(S(=O)(=O)NC2=C(C#N)C(c3cccnc3)c3c(C)nn(-c4ccccc4)c3O2)cc1 (centres unmarked)
1.09

Answer with the recorded IC50 of Cc1nn(-c2ccccc2)c2c1C(c1ccc(C(F)(F)F)cc1)C(C#N)=C(NS(=O)(=O)c1ccc(C(F)(F)F)cc1)O2 (centres unmarked) only.
1.16

----------
Biological target: RalB (Homo sapiens)
Construct: expressed in transfected cells; host or cells: HepG2 (from b6; the methods paragraph names no cell line)
Experiment: ELISA-based RalB activity assay (RalBP1-coated plates, lysates of compound-treated cells)
Assay type: biochemical
Conditions: 1 μM compound; % control = active (RalBP1-bound) RalB remaining
Could you please mark true for values of remaining activity at 1 µM below 70% and false for values at or above it?

Strictly below 70%: is that where remaining activity at 1 µM of Cc1nn(-c2ccccc2)c2c1C(c1ccc(C(F)(F)F)cc1)C(C#N)=C(NS(=O)(=O)c1ccc(C(F)(F)F)cc1)O2 (stereo not shown) sits?
true

hey, is remaining activity at 1 µM for Cc1ccc(S(=O)(=O)NC2=C(C#N)C(c3ccc(C(F)(F)F)cc3)c3c(C)nn(-c4ccccc4)c3O2)cc1 (stereo not shown) lower than 70% or not?
true

Bench note: check whether Cc1ccc(S(=O)(=O)NC2=C(C#N)C(c3ccncc3)c3c(C)nn(-c4ccccc4Cl)c3O2)cc1 (stereo not shown) shows remaining activity at 1 µM below 70%
true

Given the entry COc1cccc(C2C(C#N)=C(NS(=O)(=O)c3ccc([N+](=O)[O-])cc3)Oc3c2c(C)nn3-c2ccccc2Cl)c1 (stereo not shown) , would its reported remaining activity at 1 µM be below 70%?
true

Does Cc1ccc(S(=O)(=O)NC2=C(C#N)C(c3ccncc3)c3c(C)nn(-c4ccccc4)c3O2)cc1 (stereo not shown) have remaining activity at 1 µM strictly under 70%?
true

For this compound, is remaining activity at 1 µM lower than 70%? Cc1nn(-c2ccccc2)c2c1C(c1ccc(C(F)(F)F)cc1)C(C#N)=C(NS(=O)(=O)c1cccs1)O2 (stereo not shown)
true

Take the compound Cc1ccc(-n2nc(C)c3c2OC(NS(=O)(=O)c2ccc(C)cc2)=C(C#N)C3c2ccccc2)cc1 (stereo not shown) and say whether its remaining activity at 1 µM is less than 70%.
false

Report whether reported remaining activity at 1 µM is lower than 70% (strictly) for Cc1ccc(S(=O)(=O)NC2=C(C#N)C(c3ccsc3)c3c(C)nn(-c4ccccc4)c3O2)cc1 (stereo not shown)
true

Find out if reported remaining activity at 1 µM for Cc1ccc(S(=O)(=O)NC2=C(C#N)C(c3ccc(Cl)c(Cl)c3)c3c(C)nn(-c4ccccc4)c3O2)cc1 (stereo not shown) is less than 70%
true

Please check: remaining activity at 1 µM for Cc1ccc(S(=O)(=O)NC2=C(C#N)C(c3ccc(Br)cc3)c3c(C)nn(-c4ccccc4)c3O2)cc1 (stereo not shown) , strictly under 70% or not?
false

Problem: For the compound COc1cccc(C2C(C#N)=C(NS(=O)(=O)c3cccc([N+](=O)[O-])c3)Oc3c2c(C)nn3-c2ccccc2Cl)c1 (stereo not shown) , is remaining activity at 1 µM under 70%?
false

Hi there! Is remaining activity at 1 µM for Cc1ccc(S(=O)(=O)NC2=C(C#N)C(c3ccccc3)c3c(C)nn(-c4ccc(F)cc4)c3O2)cc1 (stereo not shown) below 70%, do you know?
false

Find out if reported remaining activity at 1 µM for Cc1ccc(S(=O)(=O)NC2=C(C#N)C(c3ccc(F)cc3)c3c(C)nn(-c4ccccc4)c3O2)cc1 (stereo not shown) is less than 70%
false

Record Cc1ccc(S(=O)(=O)NC2=C(C#N)C(c3cccnc3)c3c(C)nn(-c4ccccc4)c3O2)cc1 (stereo not shown) : is its remaining activity at 1 µM strictly below 70%?
true
